All values here come from patent US11834453B2.

TESTED TARGET: ErbB2 insYVMA (HER2-YVMA, SEQ ID NO: 2) (Homo sapiens, UniProt P04626, INS775YVMA/P1170A)
Sequence (P04626 with tags, fused parts or gaps INS775YVMA/P1170A limits assumed): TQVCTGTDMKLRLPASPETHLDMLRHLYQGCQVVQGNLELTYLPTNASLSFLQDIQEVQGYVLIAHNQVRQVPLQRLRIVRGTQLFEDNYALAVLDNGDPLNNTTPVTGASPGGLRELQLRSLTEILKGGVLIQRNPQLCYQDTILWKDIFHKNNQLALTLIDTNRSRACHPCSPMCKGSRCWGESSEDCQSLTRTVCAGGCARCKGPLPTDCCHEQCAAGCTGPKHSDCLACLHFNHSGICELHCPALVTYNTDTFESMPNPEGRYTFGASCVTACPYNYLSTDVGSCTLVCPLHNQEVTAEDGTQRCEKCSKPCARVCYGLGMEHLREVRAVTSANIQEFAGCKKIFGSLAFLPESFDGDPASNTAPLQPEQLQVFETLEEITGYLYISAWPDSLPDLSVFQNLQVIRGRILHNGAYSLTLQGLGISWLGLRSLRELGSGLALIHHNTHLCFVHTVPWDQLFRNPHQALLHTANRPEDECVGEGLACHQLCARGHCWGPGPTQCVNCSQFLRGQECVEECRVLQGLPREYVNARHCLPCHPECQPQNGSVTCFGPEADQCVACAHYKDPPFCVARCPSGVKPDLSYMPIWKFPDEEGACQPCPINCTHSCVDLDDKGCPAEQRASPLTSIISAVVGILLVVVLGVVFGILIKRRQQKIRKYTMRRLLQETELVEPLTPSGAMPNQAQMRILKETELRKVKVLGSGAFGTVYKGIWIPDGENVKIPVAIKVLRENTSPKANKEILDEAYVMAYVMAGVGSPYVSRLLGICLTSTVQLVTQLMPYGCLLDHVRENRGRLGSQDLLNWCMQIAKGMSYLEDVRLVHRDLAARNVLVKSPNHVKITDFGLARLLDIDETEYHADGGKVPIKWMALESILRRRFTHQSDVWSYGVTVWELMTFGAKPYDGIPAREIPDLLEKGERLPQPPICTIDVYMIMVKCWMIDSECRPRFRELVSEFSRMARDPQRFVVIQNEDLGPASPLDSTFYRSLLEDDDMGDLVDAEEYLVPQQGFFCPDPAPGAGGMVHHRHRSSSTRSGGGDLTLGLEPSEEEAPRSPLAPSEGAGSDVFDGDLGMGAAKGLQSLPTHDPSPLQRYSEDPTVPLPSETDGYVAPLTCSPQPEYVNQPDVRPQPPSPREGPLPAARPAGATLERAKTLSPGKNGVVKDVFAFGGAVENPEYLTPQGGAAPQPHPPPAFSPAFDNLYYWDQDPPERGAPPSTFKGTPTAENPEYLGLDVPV
EXPERIMENT SUMMARY: biochemical
EXPERIMENTAL CONTEXT: ErbB2 insYVMA enzyme assay; read-out: Assay 1 IC50
Measured pIC50 by item
Give only the number. pIC50 is defined as minus log10 of concentration in molar units.

Take a look at these entries with their results.
# compound C[C@@H]1CN(c2ncc3ncnc(Nc4ccc(Oc5ccc6c(c5)ncn6C)c(Cl)c4)c3n2)CCO1 [Example 452] ; its pIC50 = 7.32

# compound Cc1cc(Nc2ncnc3cnc(N4C[C@H]5COC[C@H]5C4)nc23)ccc1Oc1ccc2c(c1)ncn2C [Example 466] ; its pIC50 = 7.62

# compound Cc1cc(Nc2ncnc3cnc(N4CC5CC(C5)C4)nc23)ccc1Oc1ccc2c(c1)ncn2C [Example 39] ; its pIC50 = 6.70

Would you kindly look at the next entry?
# compound COCCOC1CN(c2ncc3ncnc(Nc4ccc(Oc5ccc6c(c5)ncn6C)c(C)c4)c3n2)C1 [Example 240] ; its pIC50 = 7.38

###

TESTED TARGET: ErbB2 insYVMA (HER2-YVMA, SEQ ID NO: 2) (Homo sapiens, UniProt P04626, INS775YVMA/P1170A)
EXPERIMENT SUMMARY: biochemical
EXPERIMENTAL CONTEXT: ErbB2 insYVMA enzyme assay; read-out: Assay 1 IC50
ASSAY ENDPOINT: IC50 (nM)
State just the number; it will be interpreted in nM.

Take a look at these entries with their results.
# molecule `Cc1cc(Nc2ncnc3cnc(-c4ncco4)nc23)ccc1Oc1ccc2c(c1)ncn2C` ; its IC50 = 92.7

# molecule `CO[C@H]1CN(c2ncc3ncnc(Nc4ccc(Oc5ccc6c(c5)ncn6C)c(C)c4)c3n2)C[C@H]1O` ; its IC50 = 14.1

# molecule `OC1(CNc2ncc3ncnc(Nc4ccc(Oc5ccn6ncnc6c5)c(Cl)c4)c3n2)COC1` ; its IC50 = 14.4

# molecule Cc1cc(Nc2ncnc3cnc(N(C)C4CCCOC4)nc23)ccc1Oc1ccc2c(c1)ncn2C (centres unmarked) ; its IC50 = 21.6

# molecule `Cc1cc(Nc2ncnc3cnc(N(C)CC(F)F)nc23)ccc1Oc1ccn2ncnc2c1` ; its IC50 = 15.1

Further cases:
# molecule `Cc1cc(Nc2ncnc3cnc(N[C@H]4CN(C)C[C@H]4F)nc23)ccc1Oc1ccc2c(c1)ncn2C` ; its IC50 = 25

# molecule COC[C@H](O)CN(C)c1ncc2ncnc(Nc3ccc(Oc4ccc5c(c4)ncn5C)c(C)c3)c2n1 (racemic) ; its IC50 = 28.8

# molecule `COC1CCN(c2ncc3ncnc(Nc4ccc(Oc5ccn6ncnc6c5)c(C)c4)c3n2)CC1` ; its IC50 = 26.3

###

// each record: one item and its pIC50 for EGFR (Homo sapiens (Human))
pIC50: −log10 of the molar value.

Take a look at these entries with their results.
Assay EGFR (Homo sapiens (Human)), sample Cc1cc(Nc2ncnc3cnc(O[C@@H]4CNCC4(F)F)nc23)ccc1Oc1ccc2c(c1)ncn2C [Example 301] , pIC50 read: ≤ 5.00

Assay EGFR (Homo sapiens (Human)), sample Cc1cc(Nc2ncnc3cnc(N(C)[C@@H]4CCCOC4)nc23)ccc1Oc1ccc2c(c1)ncn2C [Example 473] , pIC50 read: 5.82

Assay EGFR (Homo sapiens (Human)), sample Cc1cc(Nc2ncnc3cnc(N4CCC(C)(O)CC4)nc23)c(F)cc1Oc1ccc2c(c1)ncn2C [Example 215] , pIC50 read: ≤ 5.00

Further cases:
Assay EGFR (Homo sapiens (Human)), sample Cc1cc(Nc2ncnc3cnc(N4C[C@@H]5[C@H](C4)[C@@H]4CC[C@H]5O4)nc23)ccc1Oc1ccc2c(c1)ncn2C [Example 363] , pIC50 read: ≤ 5.00

###

TESTED TARGET: ErbB2 with Exon 20 YVMA insertion (HER2-YVMA) (Homo sapiens (Human), UniProt P04626, INS775YVMA)
Sequence (P04626 other isoform, or with tags, fused parts or gaps ins YVMA behind 775): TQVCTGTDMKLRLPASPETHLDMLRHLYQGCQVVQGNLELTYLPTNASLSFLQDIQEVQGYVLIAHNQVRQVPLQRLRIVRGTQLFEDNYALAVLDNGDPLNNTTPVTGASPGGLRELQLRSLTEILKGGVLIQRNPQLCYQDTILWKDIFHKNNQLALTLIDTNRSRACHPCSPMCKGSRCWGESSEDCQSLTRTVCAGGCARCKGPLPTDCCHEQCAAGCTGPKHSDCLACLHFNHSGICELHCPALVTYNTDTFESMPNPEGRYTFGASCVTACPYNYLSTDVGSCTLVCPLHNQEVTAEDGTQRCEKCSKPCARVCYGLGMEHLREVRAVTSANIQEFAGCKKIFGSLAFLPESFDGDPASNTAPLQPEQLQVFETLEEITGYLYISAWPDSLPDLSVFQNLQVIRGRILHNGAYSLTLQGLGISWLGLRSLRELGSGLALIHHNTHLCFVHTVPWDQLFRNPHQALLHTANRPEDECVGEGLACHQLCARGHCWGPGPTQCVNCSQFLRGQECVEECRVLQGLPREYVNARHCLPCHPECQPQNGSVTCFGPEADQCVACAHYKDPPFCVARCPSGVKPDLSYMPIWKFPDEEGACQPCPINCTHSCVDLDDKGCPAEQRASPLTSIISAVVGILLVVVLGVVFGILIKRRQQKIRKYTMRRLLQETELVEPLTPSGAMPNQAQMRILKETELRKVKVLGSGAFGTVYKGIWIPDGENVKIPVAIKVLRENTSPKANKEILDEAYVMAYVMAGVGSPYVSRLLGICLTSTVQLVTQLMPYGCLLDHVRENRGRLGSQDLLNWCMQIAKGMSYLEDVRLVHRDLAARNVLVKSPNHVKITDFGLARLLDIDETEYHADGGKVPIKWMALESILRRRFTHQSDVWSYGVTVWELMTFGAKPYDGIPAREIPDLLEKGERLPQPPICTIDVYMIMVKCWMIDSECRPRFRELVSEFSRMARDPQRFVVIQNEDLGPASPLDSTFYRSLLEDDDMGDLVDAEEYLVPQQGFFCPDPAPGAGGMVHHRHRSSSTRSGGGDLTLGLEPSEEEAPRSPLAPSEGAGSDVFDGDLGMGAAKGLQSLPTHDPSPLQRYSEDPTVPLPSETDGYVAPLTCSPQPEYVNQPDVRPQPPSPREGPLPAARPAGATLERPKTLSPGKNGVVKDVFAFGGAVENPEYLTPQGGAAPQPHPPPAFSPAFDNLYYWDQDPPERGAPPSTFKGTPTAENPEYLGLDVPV
EXPERIMENT SUMMARY: Cellular phosphorylation assay, constitutive ErbB2 phosphorylation (Y1196) in engineered NIH 3T3 cells, Assay 4
ASSAY ENDPOINT: IC50 (nM)
State just the number; it will be interpreted in nM.

# compound `Cc1cc(Nc2ncnc3cnc(N(C)[C@H]4CCC[C@@H]4O)nc23)ccc1Oc1ccc2c(c1)ncn2C` ; its IC50 = 25.4

# compound `Cc1cc(Nc2ncnc3cnc(N4CCC[C@@](C)(O)C4)nc23)c(F)cc1Oc1ccc2c(c1)ncn2C` ; its IC50 = 43.8

# compound CCn1cnc2cc(Oc3ccc(Nc4ncnc5cnc(N6CCOCC6)nc45)cc3C)ccc21 [Example 75, 2,2,2-trifluoroacetate] ; its IC50 = 23.9

Further cases:
# compound `Cc1cc(Nc2ncnc3cnc(N4CC(CS(C)(=O)=O)C4)nc23)ccc1Oc1ccc2c(c1)ncn2C` ; its IC50 = 39.6

# compound `Cc1c(Oc2ccn3ncnc3c2)ccc(Nc2ncnc3cnc(N(C)CC4(O)CC4)nc23)c1F` ; its IC50 = 2020

# compound `Cc1cc(Nc2ncnc3cnc(N(C)CC(C)(C)CO)nc23)ccc1Oc1ccc2c(c1)ncn2C` ; its IC50 = 25.7

# compound `Cc1cc(Nc2ncnc3cnc(N4CC[C@](C)(O)C4)nc23)ccc1Oc1ccn2ncnc2c1` ; its IC50 = 132

# compound `Cc1cc(Nc2ncnc3cnc(N4C5COCC4C5)nc23)ccc1Oc1ccc2c(c1)ncn2C` ; its IC50 = 160

# compound `Cc1cc(Nc2ncnc3cnc(N4CCN(C5COC5)CC4)nc23)ccc1Oc1ccc2c(c1)ncn2C` ; its IC50 = 17

# compound Cn1cnc2cc(Oc3ccc(Nc4ncnc5cnc(N6CCN[C@@H](C(F)(F)F)C6)nc45)cc3Cl)ccc21.O=C(O)C(F)(F)F [Example 146, 2,2,2-trifluoroacetate] ; its IC50 = 35.5

# compound `Cc1cc(Nc2ncnc3cnc(N[C@H]4CCOC4)nc23)ccc1Oc1ccc2c(c1)ncn2C` ; its IC50 = 9.2

# compound Cc1cc(Nc2ncnc3cnc(N4CCC4)nc23)ccc1Oc1ccc2scnc2c1 [Example 44, 2,2,2-trifluoroacetate] ; its IC50 = 70.6

# compound `Cc1cc(Nc2ncnc3cnc(N4CCCCS4(=O)=O)nc23)ccc1Oc1ccc2c(c1)ncn2C` ; its IC50 = 95.8

# compound `Cc1cc(Nc2ncnc3cnc(N4C[C@H]5C[C@@H]4CO5)nc23)ccc1Oc1ccc2c(c1)ncn2C` ; its IC50 = 44

# compound `Cc1cc(Nc2ncnc3cnc(NC4CCCC4)nc23)ccc1Oc1ccc2c(c1)ncn2C` ; its IC50 = 33.5

###

TESTED TARGET: MDR1 (P-gp) (Homo sapiens (Human))
Sequence (P08183 whole entry): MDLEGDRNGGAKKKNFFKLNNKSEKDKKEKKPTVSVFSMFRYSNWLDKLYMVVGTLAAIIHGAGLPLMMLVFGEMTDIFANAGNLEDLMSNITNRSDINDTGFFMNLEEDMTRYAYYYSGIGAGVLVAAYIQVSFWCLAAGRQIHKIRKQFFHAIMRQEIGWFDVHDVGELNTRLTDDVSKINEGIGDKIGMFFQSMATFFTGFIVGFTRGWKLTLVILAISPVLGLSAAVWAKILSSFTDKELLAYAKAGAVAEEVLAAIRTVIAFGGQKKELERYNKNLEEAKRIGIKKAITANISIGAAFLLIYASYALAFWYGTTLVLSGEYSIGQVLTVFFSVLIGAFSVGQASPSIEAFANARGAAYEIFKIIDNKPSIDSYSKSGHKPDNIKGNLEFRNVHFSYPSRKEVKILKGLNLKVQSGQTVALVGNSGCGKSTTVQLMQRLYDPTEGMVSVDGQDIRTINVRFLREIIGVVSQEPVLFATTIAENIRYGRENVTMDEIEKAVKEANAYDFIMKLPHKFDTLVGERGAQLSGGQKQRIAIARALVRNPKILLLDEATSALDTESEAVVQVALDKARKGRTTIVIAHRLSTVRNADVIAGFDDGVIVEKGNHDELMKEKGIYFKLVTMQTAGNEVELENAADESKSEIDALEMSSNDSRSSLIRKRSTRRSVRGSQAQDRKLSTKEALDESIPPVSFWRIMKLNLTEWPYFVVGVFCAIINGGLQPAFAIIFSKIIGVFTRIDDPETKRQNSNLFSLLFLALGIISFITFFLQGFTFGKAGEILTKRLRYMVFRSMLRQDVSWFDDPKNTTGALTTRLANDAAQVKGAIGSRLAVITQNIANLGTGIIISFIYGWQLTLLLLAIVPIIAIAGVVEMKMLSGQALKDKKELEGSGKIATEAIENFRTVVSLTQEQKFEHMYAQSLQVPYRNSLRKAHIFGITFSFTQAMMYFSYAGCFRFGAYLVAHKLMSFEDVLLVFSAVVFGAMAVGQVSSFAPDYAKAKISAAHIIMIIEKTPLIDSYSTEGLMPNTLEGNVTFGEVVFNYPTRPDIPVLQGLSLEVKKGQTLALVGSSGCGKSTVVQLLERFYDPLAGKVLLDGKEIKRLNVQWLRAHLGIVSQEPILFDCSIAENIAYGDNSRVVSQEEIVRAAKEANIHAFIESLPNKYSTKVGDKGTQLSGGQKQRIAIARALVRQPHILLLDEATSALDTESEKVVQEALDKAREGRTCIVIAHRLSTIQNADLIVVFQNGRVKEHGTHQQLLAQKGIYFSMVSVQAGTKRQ
EXPERIMENT SUMMARY: MDR1 transfected MDCKII canine Mdr1 knockout permeability/efflux, Assay 7
EXPERIMENTAL CONTEXT: dog, MDCK-MDR1
Rule: efflux ratio at 2 h, 1 μM of 2 or more gives condition met; anything lower gives condition not met.

The examples below pair each entry with its known result.
In plain terms: is recorded efflux ratio at 2 h, 1 μM at least 2 for `Cn1cnc2cc(Oc3ccc(Nc4ncnc5cnc(N6CC[C@@H](CC#N)C6)nc45)cc3Cl)ccc21` ? condition not met

In plain terms: is recorded efflux ratio at 2 h, 1 μM at least 2 for COC[C@H](O)CN(C)c1ncc2ncnc(Nc3ccc(Oc4ccc5c(c4)ncn5C)c(C)c3)c2n1 (racemic) ? condition not met

In plain terms: is recorded efflux ratio at 2 h, 1 μM at least 2 for `Cc1cc(Nc2ncnc3cnc(N4CC[C@@H](O)C4)nc23)ccc1Oc1ccc2c(c1)ncn2C` ? condition met

Further cases:
In plain terms: is recorded efflux ratio at 2 h, 1 μM at least 2 for `Cn1cnc2cc(Oc3ccc(Nc4ncnc5cnc(N6CCN7CCOC[C@H]7C6)nc45)cc3Cl)ccc21.O=C(O)C(F)(F)F.O=C(O)C(F)(F)F` ? condition met

In plain terms: is recorded efflux ratio at 2 h, 1 μM at least 2 for `CC(C)(O)[C@@H]1CCN(c2ncc3ncnc(Nc4ccc(Oc5ccn6ncnc6c5)c(Cl)c4)c3n2)C1` ? condition not met

In plain terms: is recorded efflux ratio at 2 h, 1 μM at least 2 for `Cc1cc(Nc2ncnc3cnc(N4C[C@@H]5C[C@H]4C[C@@H]5O)nc23)ccc1Oc1ccc2c(c1)ncn2C` ? condition met

In plain terms: is recorded efflux ratio at 2 h, 1 μM at least 2 for `Cc1cc(Nc2ncnc3cnc(N4CCN5CCOC[C@H]5C4)nc23)ccc1Oc1ccc2c(c1)ncn2C` ? condition not met

In plain terms: is recorded efflux ratio at 2 h, 1 μM at least 2 for `Cc1c(Oc2ccn3ncnc3c2)ccc(Nc2ncnc3cnc(N4CCC(C)(O)CC4)nc23)c1F` ? condition not met

In plain terms: is recorded efflux ratio at 2 h, 1 μM at least 2 for `Cc1cc(Nc2ncnc3cnc(N4CC[C@@H](C(C)(C)O)C4)nc23)ccc1Oc1ccn2ncnc2c1` ? condition not met

###

// each record: one item and its IC50 for ErbB2 WT (Homo sapiens (Human), UniProt P04626)
Answer with the figure and its unit, nothing else.

# compound Cc1cc(Nc2ncnc3cnc(NC4CCCC4)nc23)ccc1Oc1ccc2c(c1)ncn2C [Example 273] ; its IC50 = 202 nM

# compound Cc1c(Oc2ccn3ncnc3c2)ccc(Nc2ncnc3cnc(N4CC[C@H](O)C4)nc23)c1F [Example 311] ; its IC50 = 76.3 nM

Further cases:
# compound Cc1cc(Nc2ncnc3cnc(N4CC(C)CS4(=O)=O)nc23)ccc1Oc1ccc2c(c1)ncn2C (stereo not drawn) [Example 140] ; its IC50 = 20.3 nM

# compound Cc1cc(Nc2ncnc3cnc(N4CCC(O)(C(F)F)CC4)nc23)ccc1Oc1ccc2c(c1)ncn2C [Example 168] ; its IC50 = 113 nM

# compound Cn1cnc2cc(Oc3ccc(Nc4ncnc5cnc(N6CC[C@@H]7COC[C@H]76)nc45)cc3Cl)ccc21 [Example 489] ; its IC50 = 9.7 nM

# compound Clc1cc(Nc2ncnc3cnc(N4CCC45COC5)nc23)ccc1Oc1ccn2ncnc2c1 [Example 132] ; its IC50 = 5.6 nM

# compound CC1(C)CN(c2ncc3ncnc(Nc4ccc(Oc5ccn6ncnc6c5)c(Cl)c4)c3n2)C[C@H]1O [Example 339] ; its IC50 = 71.4 nM

# compound Cc1cc(Nc2ncnc3cnc(N(C)CC(F)F)nc23)ccc1Oc1ccc2c(c1)ncn2C [Example 57] ; its IC50 = 37.7 nM
